Values compiled from PubChem BioAssay (NCI).

- Tested on: MDA-MB-231 breast
- Assay details: NCI tumour cell line growth inhibition, 48 h; in the data active = GI50 below about 0.43 µM; inactive = the rest
Please answer using one outcome listed in active, inactive

## Task // outcome(item) with item = COc1cc2c3c(n(CCCN4CCNCC4)c(=O)c2cc1OC)-c1cc2c(cc1C3=O)OCO2
## Result inactive

## Task Hello, I am checking results. What call was entered for COc1ccc2c(c1)N(Cc1ccc(Cl)cc1)CCC2N1CCCC1=O (stereo not given) ?
## Result inactive

## Task Name the outcome recorded for O=C(/C=C/C12c3ccccc3C(c3ccccc31)C1C(=O)N(c3ccc(Cl)cc3)C(=O)C12)c1ccccn1 (stereo not given) in the assay.
## Result active

## Task Hello, I am checking results. What call was entered for O=[N+]([O-])c1ccc(/C=C/c2nc3ccc(Cl)cc3[nH]2)cc1 ?
## Result inactive

## Task Please share the test call associated with CCCCCCCCCCCCCC[n+]1ccccc1 .
## Result inactive
